test: Pharmacokinetics of STX243 in plasma (HPLC); type: in vivo, female Wistar rats; details: female, Wistar, rat, plasma; Oral 40 mg kg^−1; read-out: MRT (mean residence time)
reported.endpoint: MRT
Form entry: enter the amount, then its unit.

Consider the compound shown here: CCc1cc2c(cc1OS(N)(=O)=O)CCC1C2CC[C@@]2(C)C1CC[C@@H]2OS(N)(=O)=O (stereo partly shown) What is its recorded MRT?
6.93 h

###

test: Pharmacokinetics of STX243 in plasma (HPLC); assay type: in vivo, female Wistar rats; settings: female, Wistar, rat, plasma; Intravenous 10 mg kg^−1; read-out: t1/2β (elimination half-life) (converted)
reported.endpoint: half-life (h)
Answers are plain numbers, in h.

Consider the compound shown here: CCc1cc2c(cc1OS(N)(=O)=O)CCC1C2CC[C@@]2(C)C1CC[C@@H]2OS(N)(=O)=O (stereo partly shown) What is its recorded half-life?
4.78

###

test: Pharmacokinetics of STX243 in plasma (HPLC); format: in vivo, female Wistar rats; conditions: female, Wistar; Intravenous 40 mg kg^−1, rat plasma
reported.endpoint: Cmax
Form entry: enter the amount, then its unit.

Consider the compound shown here: CCc1cc2c(cc1OS(N)(=O)=O)CCC1C2CC[C@@]2(C)C1CC[C@@H]2OS(N)(=O)=O (stereo partly shown) What is its recorded Cmax?
44800 ng/mL

###

assay: Pharmacokinetics of STX243 in plasma (HPLC); format: in vivo, female Wistar rats; details: female, Wistar, rat, plasma; Oral 10 mg kg^−1; read-out: MRT (mean residence time)
reported.endpoint: MRT (h)
One number for each entry, in h.

Consider the molecule shown here: CCc1cc2c(cc1OS(N)(=O)=O)CCC1C2CC[C@@]2(C)C1CC[C@@H]2OS(N)(=O)=O (stereo partly shown) What is its recorded MRT?
16.8

###

assay: Pharmacokinetics of STX243 in plasma (HPLC); format: in vivo, female Wistar rats; settings: female, Wistar, rat, plasma; Intravenous 10 mg kg^−1; read-out: VD (volume of distribution)
reported.endpoint: Vd
Form entry: enter the amount, then its unit.

Consider the molecule shown here: CCc1cc2c(cc1OS(N)(=O)=O)CCC1C2CC[C@@]2(C)C1CC[C@@H]2OS(N)(=O)=O (stereo partly shown) What is its recorded Vd?
1.48 L/kg
